Entries and their measured pKd follow.
- targetOfAssay: T1, biotinylated human VWF cysteine knot (CK) domain construct (human, UniProt P04275 2724-2813, biotinylated in vitro (BirA) on the biotinylation tag; one N-glycan)
- T1 construct: Expressed in HEK293 EBNA cells; disulfide-linked homodimer; also called human VWF CK; human VWF CK domain; not shown: in vitro biotinylation tag, HRV-3C site and 3 VWF residues before the CK domain
- methodNotes: SPR, scFv captured via anti-SV5, CK domain injected, pH 5.5, apparent Kd;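 also: scFvs from crude yeast supernatants captured on chip-bound anti-SV5 antibody, Kd computed as koff divided by kon, dimeric CK construct likely makes affinity appear higher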
pKd: −log10 of the molar value.
endpointName: pKd

>>> val("1405_Lib8_scFv (scFv, VH-linker-VL; not shown: C-terminal 3xFLAG and SV5 tags) scFv: EVQLVESGGGLVQPGRSLRLSCAASGVDFSTYAMHWVRQAPGKGLEWVSAISSSGAYTDYADSVEGRFTISRDNAKNSLYLQMNSLRAEDTAVYYCATDRGPFSGYGTQGWFDPWGQGTLVTVSSSGGSTITSYNVYYTKLSSSGTDIQMTQSPSSLSASVGDRVTITCRASRDITSYLAWYQQKPGKAPKLLIYHASTLEAGVPSRFSGSGSGTDFTLTISSLQPEDVATYYCQQYGDFPPTFGGGTKVEIK")
9.41
>>> val("4142_Lib1_scFv (scFv, VH-linker-VL; not shown: C-terminal 3xFLAG and SV5 tags) scFv: QVQLVQSGAEVKKPGASVKVSCKVSGYPFTSSGIHWVRQAPGKGLEWMGGVIPLFGTANYAQKFQGRVTMTEDTSTDTAYMELSSLKSEDTAVYYCARIRVSSGWYRDYGMDVWGQGTTVTVSSSGGSTITSYNVYYTKLSSSGTDIQMTQSPSSVSASVGDRVTITCRASQDITNDLAWYQQKPGKAPKLLIYDASRLQSGVPSRFSGSGSGTDFTLTISSLQPEDFANYYCQQTFTTPLTFGGGTKVEIK")
9.20
